system: chloroquine-sensitive NF54 strain of P. falciparum; experiment: in vitro screen against chloroquine-sensitive NF54 strain of P. falciparum; format: cell-based; conditions: Plasmodium falciparum; in vitro, NF54 strain; read-out: IC50 (ng/ml) NF54
reported.metric: IC50 (ng/mL)
Lab book: enter the figure in ng/mL, no units written.

compound	IC50 (ng/mL)
CCOC(=O)CCC1CCCCC12OOC1(CCCCC1)O2 (centres unmarked)	49
C[C@H]1[C@@H](O)O[C@@H]2O[C@@]3(C)CC[C@H]4[C@H](C)CC[C@@H]1[C@@]24OO3 [Dihydroart, dihydroartemisinin, reference compound]	0.23
C[C@@H]1CC[C@H]2[C@@H](C)C(=O)O[C@@H]3O[C@@]4(C)CC[C@@H]1[C@]32OO4 [Artemisinin, artemisinin, reference compound]	1.9
O=C1CCC2(CC1)OOC1(CCCCC1)O2	94
O=S1(=O)CCC2(CC1)OOC1(O2)C2CC3CC(C2)CC1C3 (centres unmarked)	1.2

// sample Fc1ccc(C2(c3ccc(F)cc3)OOC3(CCC(c4ccccc4)CC3)O2)cc1 (centres unmarked) , its IC50 was 36

Entry Cc1ccc(S(=O)(=O)NN=C2CCC3(CC2)OOC2(O3)C3CC4CC(C3)CC2C4)cc1 (centres unmarked) ; IC50 = 1.8

Kindly note the recorded IC50 for c1ccc(C2CCC3(CC2)OOC2(CCC(c4ccccc4)CC2)O3)cc1 (centres unmarked) , which is 28

* * *

system: P. berghei; assay: 1-day Peters test against P. berghei in vivo; details: Plasmodium berghei, 24 h; 1 day, po; read-out: P. berghei (1 day) ED50 po
ED50 overview
Just the number in mg/kg, nothing appended.

Worked cases, answers included:
compound	target.or.system	reported.metric	measured.value
C[C@@H]1CC[C@H]2[C@@H](C)C(=O)O[C@@H]3O[C@@]4(C)CC[C@@H]1[C@]32OO4 [Artemisinin, artemisinin, reference compound]	P. berghei	ED50	9.1
CO[C@H]1O[C@@H]2O[C@@]3(C)CC[C@H]4[C@H](C)CC[C@@H]([C@H]1C)[C@@]24OO3 [Artemether, artemether, reference compound]	P. berghei	ED50	2
C1CCC2(CC1)OOC1(O2)C2CC3CC(C2)CC1C3 (stereo not shown)	P. berghei	ED50	5

The record that follows has no ED50 shown yet.
Simply: C[C@H]1[C@@H](O)O[C@@H]2O[C@@]3(C)CC[C@H]4[C@H](C)CC[C@@H]1[C@@]24OO3 [Dihydroart, dihydroartemisinin, reference compound] , P. berghei, ED50 = 2.9

* * *

tested on: ANKA strain of P. Berghei; assay: single dose STI in vivo screen in infected Moro SPF mice; details: single 10 mg/kg sc
Survival (days) sc overview
# output: bare number, implied unit days

compound	Survival (days) sc
C[C@@H]1CC[C@H]2[C@@H](C)C(=O)O[C@@H]3O[C@@]4(C)CC[C@@H]1[C@]32OO4 [Artemisinin, artemisinin, reference compound]	7.0

// moving on: another record for Survival (days) sc
Lab book: Survival (days) sc of CCO[C@H]1O[C@@H]2O[C@@]3(C)CC[C@H]4[C@H](C)CC[C@@H]([C@H]1C)[C@@]24OO3 [Arteether, arteether, reference compound] noted as 9.7

* * *

system: P. berghei; assay: 1-day Peters test against P. berghei in vivo; details: 1 day, po
List of P. berghei (1 day) ED90 po values.
Could you give me the number in mg/kg? Just the number is fine.

Take a look at these entries with their results.
molecule	target.or.system	P. berghei (1 day) ED90 po (mg/kg)
CC1(C)COC2(CCC3(CC2)OOC2(O3)C3CC4CC(C3)CC2C4)OC1 (stereo not shown)	P. berghei	2.8
c1ccc2c(c1)COC1(CCC3(CC1)OOC1(O3)C3CC4CC(C3)CC1C4)OC2 (stereo not shown)	P. berghei	3.9
O=C(c1ccccc1)N1CCC2(CC1)OOC1(O2)C2CC3CC(C2)CC1C3 (stereo not shown)	P. berghei	9.0

Could you now look at the following molecule, please?
Fill in: P. berghei P. berghei (1 day) ED90 po for CCOC(=O)N1CCC2(CC1)OOC1(O2)C2CC3CC(C2)CC1C3 (stereo not shown) = 5.5
